# pIC50 per entry for Voltage-gated inwardly rectifying potassium channel KCNH2 (Homo sapiens, UniProt Q12809)
Please note pIC50 is a logarithmic value: minus log10 of concentration in mol/L. Answer with that number alone.

O=C1COc2ccc(CN[C@H]3CO[C@H](CC4Cn5c(=O)ccc6ncc(F)c4c65)OC3)nc2N1 (stereo not given in full)
4.01
O=c1ccc2ccc(F)c3c2n1CC3C[C@H]1OC[C@H](NCc2cc3c(nn2)OCCS3)CO1 (stereo not given in full)
3.70
O=c1ccc2ncc(F)c3c2n1CC3C[C@H]1OC[C@H](NCc2cc3c(cn2)OCCC3)CO1 (stereo not given in full)
3.90

Now look at this entry.
Any idea what pIC50 was measured for O=c1ccc2ccc(F)c3c2n1CC3C[C@H]1OC[C@H](NCc2cc3c(cn2)OCCC3)CO1 (stereo not given in full) ?
4.28

###

# System: Staphylococcus aureus
# ASSAY INFO: Selectivity ratio of IC50 for inhibition of Staphylococcus aureus DNA topoisomerase 4 decatenation activity to IC50 for inhibition of Staphylococcus aureus DNA gyrase supercoiling activity
Cut-off 4 on Ratio IC50, inclusive. At or above means True; below means False.

Field: example entries. Status: answers known.
O=c1ccc2ccc(F)c3c2n1CC3C[C@H]1OC[C@H](NCc2ccc3c(c2)OCCO3)CO1 (stereo partly drawn)
False
COc1ccc2ncc(F)c(C[C@H](O)[C@H]3OC[C@H](NC(=O)c4ccc5c(n4)NC(=O)CO5)CO3)c2n1
True
COc1ccc2ncc(F)c(C[C@H](O)[C@H]3OC[C@H](NC(=O)c4ccc5c(c4)OCCO5)CO3)c2n1
True
O=C1CSc2ccc(CN[C@H]3CO[C@H](CC4Cn5c(=O)ccc6ncc(F)c4c65)OC3)nc2N1 (stereo partly drawn)
False
O=c1ccc2ncc(F)c3c2n1CC3C[C@H]1OC[C@H](NCc2ccc3c(c2)OCCO3)CO1 (stereo partly drawn)
True
O=C1COc2ccc(CN[C@H]3CO[C@H](CC4Cn5c(=O)ccc6ccc(F)c4c65)OC3)nc2N1 (stereo partly drawn)
False

Determine whether measured Ratio IC50 meets or exceeds 4 for O=c1ccc2ncc(F)c3c2n1CC3C[C@H]1OC[C@H](NCc2cc3c(cn2)OCCC3)CO1 (stereo partly drawn)
False

Determine whether measured Ratio IC50 meets or exceeds 4 for O=c1ccc2ccc(F)c3c2n1CC3C[C@H]1OC[C@H](NCc2cc3c(nn2)OCCS3)CO1 (stereo partly drawn)
True

Determine whether measured Ratio IC50 meets or exceeds 4 for COc1ccc2ncc(F)c(C[C@H](O)[C@H]3OC[C@H](NC(=O)c4ccc5c(n4)NC(=O)CS5)CO3)c2n1
False

Determine whether measured Ratio IC50 meets or exceeds 4 for O=c1ccc2ncc(F)c3c2n1CC3C[C@H]1OC[C@H](NCc2cc3c(nn2)OCCS3)CO1 (stereo partly drawn)
True

Determine whether measured Ratio IC50 meets or exceeds 4 for O=c1ccc2ccc(F)c3c2n1CC3C[C@H]1OC[C@H](NCc2cc3c(cn2)OCCC3)CO1 (stereo partly drawn)
True

Determine whether measured Ratio IC50 meets or exceeds 4 for O=C1COc2ccc(CN[C@H]3CO[C@H](CC4Cn5c(=O)ccc6ncc(F)c4c65)OC3)nc2N1 (stereo partly drawn)
False

Determine whether measured Ratio IC50 meets or exceeds 4 for O=c1ccc2ccc(F)c3c2n1CC3C[C@H]1OC[C@H](NCc2cc3c(nn2)OCCO3)CO1 (stereo partly drawn)
False

###

# Tested on: Staphylococcus aureus
# ASSAY INFO: Antibacterial activity against Staphylococcus aureus harbouring GyrA D83N mutant by CLSI method
# Assay type: functional
Measured MIC, listed per entry for reference.
Just the number please, in µg/mL, no unit attached.

O=C1CSc2ccc(CN[C@H]3CO[C@H](CC4Cn5c(=O)ccc6ncc(F)c4c65)OC3)nc2N1 (stereo partly specified)
8
O=c1ccc2ncc(=O)n3c2n1CC3CN1CCC(NCc2cc3c(cn2)OCCC3)CC1 (racemic)
8
O=C1COc2ccc(CN[C@H]3CO[C@H](CC4Cn5c(=O)ccc6ccc(F)c4c65)OC3)nc2N1 (stereo partly specified)
4

Now look at this entry.
Any idea what MIC was measured for O=c1ccc2ncc(F)c3c2n1CC3C[C@H]1OC[C@H](NCc2cc3c(cn2)OCCC3)CO1 (stereo partly specified) ?
8

###

# System: Staphylococcus aureus
# ASSAY INFO: Antibacterial activity against Staphylococcus aureus 3527 by CLSI method
# Format: functional
Measured MIC, listed per entry for reference.
Just the number please, in mg/L, no unit attached.

COc1ccc2ncc(F)c(C[C@H](O)[C@H]3OC[C@H](NC(=O)c4ccc5c(c4)OCCO5)CO3)c2n1
0.25
O=c1ccc2ccc(F)c3c2n1CC3C[C@H]1OC[C@H](NCc2cc3c(cn2)OCCC3)CO1 (stereo partly specified)
0.5
O=c1ccc2ccc(F)c3c2n1CC3C[C@H]1OC[C@H](NCc2cc3c(nn2)OCCS3)CO1 (stereo partly specified)
1
O=c1ccc2ccc(F)c3c2n1CC3C[C@H]1OC[C@H](NCc2cc3c(nn2)OCCO3)CO1 (stereo partly specified)
4

Test system Staphylococcus aureus; read-out MIC; what value for O=C1COc2ccc(CN[C@H]3CO[C@H](CC4Cn5c(=O)ccc6ccc(F)c4c65)OC3)nc2N1 (stereo partly specified) ?
0.25

###

# ASSAY INFO: Inhibition of Neisseria gonorrhoeae DNA topoisomerase 4 decatenation activity using kDNA as substrate incubated for 10 to 20 min by ethidium bromide/bromophenol blue staining based agarose gel electrophoresis analysis
Measured IC50, listed per entry for reference.
Just the number please, in µM, no unit attached.

Known results for compounds:
COc1ccc2ncc(F)c(C[C@H](O)[C@H]3OC[C@H](NCc4cc5c(nn4)OCCS5)CO3)c2n1
83
COc1ccc2ncc(F)c(C[C@H](O)[C@H]3OC[C@H](NCc4ccc5c(n4)NC(=O)CS5)CO3)c2n1
3.6

Now look at this entry.
Any idea what IC50 was measured for COc1ccc2ncc(F)c(C[C@H](O)[C@H]3OC[C@H](NC(=O)c4ccc5c(n4)NC(=O)CS5)CO3)c2n1 ?
27

###

Measured MIC, listed per entry for reference.
# Test system: Staphylococcus aureus
# ASSAY INFO: Antibacterial activity against Staphylococcus aureus 3527 by CLSI method
# Type: functional

Any idea what MIC was measured for O=C1COc2ccc(CN[C@H]3CO[C@H](CC4Cn5c(=O)ccc6ncc(F)c4c65)OC3)nc2N1 (stereo partly drawn) ?
2 µg/mL

###

# MEASURED ON: DNA gyrase (Staphylococcus aureus, UniProt P0A0K8+P20831)
# ASSAY INFO: Inhibition of Staphylococcus aureus DNA gyrase supercoiling activity incubated for 25 min by ethidium bromide/bromophenol blue staining based agarose gel electrophoresis analysis
REPORTED METRIC: IC50 (nM)
Just the number please, in nM, no unit attached.

COc1ccc2ncc(F)c(C[C@H](O)[C@H]3OC[C@H](NC(=O)c4ccc5c(n4)NC(=O)CO5)CO3)c2n1
190
O=C1COc2ccc(CN[C@H]3CO[C@H](CC4Cn5c(=O)ccc6ncc(F)c4c65)OC3)nc2N1 (stereo not given in full)
4200
O=c1ccc2ccc(F)c3c2n1CC3C[C@H]1OC[C@H](NCc2cc3c(nn2)OCCO3)CO1 (stereo not given in full)
3500
O=c1ccc2ccc(F)c3c2n1CC3C[C@H]1OC[C@H](NCc2cc3c(nn2)OCCS3)CO1 (stereo not given in full)
1700

Test system DNA gyrase (Staphylococcus aureus, UniProt P0A0K8+P20831); read-out IC50; what value for O=C1COc2ccc(CN[C@H]3CO[C@H](CC4Cn5c(=O)ccc6ccc(F)c4c65)OC3)nc2N1 (stereo not given in full) ?
1600

###

# ASSAY INFO: Cytotoxicity activity against human K562 cells assessed as inhibition of cellular growth
# Type: toxicity, cell-based
pIC50: −log10 of the molar value.
Cut-off 4 on pIC50, inclusive. At or above means 1.0; below means 0.0.

Field: example entries. Status: answers known.
O=c1ccc2ncc(F)c3c2n1CC3C[C@H]1OC[C@H](NCc2ccc3c(c2)OCCO3)CO1 (stereo partly drawn)
1.0
O=c1ccc2ccc(F)c3c2n1CC3C[C@H]1OC[C@H](NCc2cc3c(nn2)OCCS3)CO1 (stereo partly drawn)
1.0
COc1ccc2ncc(F)c(C[C@H](O)[C@H]3OC[C@H](NC(=O)c4ccc5c(c4)OCCO5)CO3)c2n1
1.0

Attention now turns to another entry.
Determine whether measured pIC50 meets or exceeds 4 for O=c1ccc2ncc(F)c3c2n1CC3C[C@H]1OC[C@H](NCc2cc3c(cn2)OCCC3)CO1 (stereo partly drawn)
0.0

###

# MEASURED ON: Topoisomerase IV (Staphylococcus aureus, UniProt P0C1S7+P0C1U9)
# Sequence (P0C1U9 whole entry): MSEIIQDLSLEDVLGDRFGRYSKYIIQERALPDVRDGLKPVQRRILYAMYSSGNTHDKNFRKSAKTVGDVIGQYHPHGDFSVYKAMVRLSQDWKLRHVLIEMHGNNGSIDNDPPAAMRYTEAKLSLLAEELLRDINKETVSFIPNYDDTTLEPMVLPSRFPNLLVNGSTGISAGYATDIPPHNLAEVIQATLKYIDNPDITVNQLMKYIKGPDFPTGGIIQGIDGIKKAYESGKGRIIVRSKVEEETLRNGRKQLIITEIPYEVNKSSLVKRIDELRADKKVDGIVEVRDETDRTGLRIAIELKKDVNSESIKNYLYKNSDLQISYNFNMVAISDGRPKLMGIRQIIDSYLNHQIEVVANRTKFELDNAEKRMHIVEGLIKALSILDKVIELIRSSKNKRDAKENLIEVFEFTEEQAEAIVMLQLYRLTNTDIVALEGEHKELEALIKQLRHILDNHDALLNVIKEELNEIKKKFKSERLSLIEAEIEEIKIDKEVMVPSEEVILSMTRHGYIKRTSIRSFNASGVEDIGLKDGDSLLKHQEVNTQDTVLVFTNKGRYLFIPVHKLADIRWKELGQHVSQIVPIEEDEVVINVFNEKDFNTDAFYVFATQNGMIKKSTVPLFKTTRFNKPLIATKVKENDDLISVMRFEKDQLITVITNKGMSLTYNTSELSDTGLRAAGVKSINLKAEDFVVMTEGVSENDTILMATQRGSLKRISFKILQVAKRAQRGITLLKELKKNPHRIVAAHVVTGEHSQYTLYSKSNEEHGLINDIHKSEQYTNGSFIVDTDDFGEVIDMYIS
# Sequence (P0C1S7 whole entry): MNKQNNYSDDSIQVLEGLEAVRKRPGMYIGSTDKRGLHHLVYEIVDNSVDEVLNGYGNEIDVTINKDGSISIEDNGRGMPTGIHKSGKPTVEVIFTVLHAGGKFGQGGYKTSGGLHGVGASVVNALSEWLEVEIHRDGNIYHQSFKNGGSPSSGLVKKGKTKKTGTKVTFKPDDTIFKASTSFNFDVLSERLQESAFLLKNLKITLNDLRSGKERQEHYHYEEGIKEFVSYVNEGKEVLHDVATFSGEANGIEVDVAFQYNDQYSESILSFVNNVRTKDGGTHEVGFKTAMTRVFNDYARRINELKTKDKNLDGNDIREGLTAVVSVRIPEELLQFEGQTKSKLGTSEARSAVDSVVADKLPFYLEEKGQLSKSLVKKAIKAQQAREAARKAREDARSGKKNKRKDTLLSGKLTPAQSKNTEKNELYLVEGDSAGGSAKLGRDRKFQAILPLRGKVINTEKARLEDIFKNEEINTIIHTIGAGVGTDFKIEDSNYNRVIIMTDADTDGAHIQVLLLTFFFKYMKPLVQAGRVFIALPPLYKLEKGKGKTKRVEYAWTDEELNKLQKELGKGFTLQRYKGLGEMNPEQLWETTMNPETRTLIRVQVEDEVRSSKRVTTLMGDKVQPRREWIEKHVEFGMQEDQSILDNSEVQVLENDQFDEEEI
# ASSAY INFO: Inhibition of Staphylococcus aureus DNA topoisomerase 4 decatenation activity using kDNA as substrate incubated for 10 to 20 min by ethidium bromide/bromophenol blue staining based agarose gel electrophoresis analysis
REPORTED METRIC: pIC50
Please note pIC50 is a logarithmic value: minus log10 of concentration in mol/L. Answer with that number alone.

Any idea what pIC50 was measured for O=c1ccc2ncc(F)c3c2n1CC3C[C@H]1OC[C@H](NCc2cc3c(nn2)OCCS3)CO1 (stereo partly drawn) ?
5.00

Any idea what pIC50 was measured for O=c1ccc2ccc(F)c3c2n1CC3C[C@H]1OC[C@H](NCc2ccc3c(c2)OCCO3)CO1 (stereo partly drawn) ?
6.22

Any idea what pIC50 was measured for O=c1ccc2ncc(F)c3c2n1CC3C[C@H]1OC[C@H](NCc2ccc3c(c2)OCCO3)CO1 (stereo partly drawn) ?
6.27

Any idea what pIC50 was measured for COc1ccc2ncc(F)c(C[C@H](O)[C@H]3OC[C@H](NC(=O)c4ccc5c(c4)OCCO5)CO3)c2n1 ?
5.77

Any idea what pIC50 was measured for O=c1ccc2ccc(F)c3c2n1CC3C[C@H]1OC[C@H](NCc2cc3c(nn2)OCCS3)CO1 (stereo partly drawn) ?
5.13

Any idea what pIC50 was measured for COc1ccc2ncc(F)c(C[C@H](O)[C@H]3OC[C@H](NC(=O)c4ccc5c(n4)NC(=O)CO5)CO3)c2n1 ?
5.96
